# TGI per entry
Tested on: 786-0 renal
Test: NCI tumour cell line growth inhibition, 48 h

The value of TGI measured for the compound COc1c2c(c3c(c1OC)c(=O)c1ccccc1n3C)OCO2 turned out to be > 100 µM

The value of TGI measured for the compound COc1cc2nc(N3CCCN(C)CC3)nc(NC3CCN(Cc4ccccc4)CC3)c2cc1OC turned out to be 5.2 µM

The value of TGI measured for the compound COc1ccc(C(=O)C2CCC(C(=O)O)C2)cc1 (stereo unspecified) turned out to be > 100 µM

The value of TGI measured for the compound NC1=Nc2ccccc2Sc2nncn21 turned out to be > 100 µM

The value of TGI measured for the compound C[C@H](Nc1nc(N)c(N=O)c(=O)n1C)C(=O)O turned out to be > 10 µM

The value of TGI measured for the compound O=c1onc2n1-c1ccc(Cl)cc1C(=S)N1CSCC21 (stereo unspecified) turned out to be > 100 µM

Next:
The value of TGI measured for the compound O=[N+]([O-])c1ccc(-c2csc(N=Nc3c(O)[nH]c4ccccc34)n2)cc1 turned out to be > 100 µM

The value of TGI measured for the compound CCOC(=O)C12CCC(=O)N1N(C)c1ncccc1N2 (stereo unspecified) turned out to be > 100 µM

The value of TGI measured for the compound CCOC(=O)C(=Cc1ccc(C#N)cc1)C(=O)OCC turned out to be 3.88 µM

The value of TGI measured for the compound FC1(F)ON2CCc3ccccc3C2[C@H]1c1ccccc1 (stereo partly specified) turned out to be 96.7 µM

The value of TGI measured for the compound COC(=O)C1=CO[C@@H](C)[C@@H]2Cn3ccc4c5ccccc5nc-4c3C[C@H]12 turned out to be > 100 µM
